# System: lipase
# experiment: Lipase/lipolysis assay (EnzChek Lipase Substrate, quenched BODIPY-fatty acid conjugate) on stored human milk; note: test concentration or dose not given here
Ranges used to classify Lipase (RFU): bucket 1 (below 800 RFU), bucket 2 (800 RFU to below 1000 RFU), bucket 3 (1000 RFU or more)

Before answering, review these 10 worked examples.
molecule="CCCCCCCCCCCCCCC[C@@H](O)[C@@H](N)CO [D-Erythro-dihydrosphingosine]" class="bucket 3"
molecule="C[C@]12CC[C@H](O)C[C@@H]1CC[C@@H]1[C@@H]2CC[C@]2(C)C(=O)CC[C@@H]12 [Epiandrosterone]" class="bucket 1"
molecule="COC(=O)C1=CO[C@@H](O[C@@H]2O[C@H](CO)[C@@H](O)[C@H](O)[C@H]2O)[C@@H]2[C@@H](C)CC(=O)[C@]12O [Hastatoside]" class="bucket 1"
molecule=C[C@H]1CC[C@@H]2[C@@H](C)[C@H]3[C@H](C[C@H]4[C@@H]5CC=C6C[C@@H](O[C@@H]7O[C@H](CO)[C@H](O)[C@H](O[C@@H]8O[C@H](CO)[C@@H](O)[C@H](O)[C@H]8O)[C@H]7O[C@@H]7O[C@@H](C)[C@H](O)[C@@H](O)[C@H]7O)CC[C@]6(C)[C@H]5CC[C@]34C)N2C1 class="bucket 2"
molecule=O=c1cc(-c2ccc(O)cc2)oc2c([C@@H]3OC[C@@H](O)[C@H](O)[C@H]3O)c(O)c([C@@H]3O[C@H](CO)[C@@H](O)[C@H](O)[C@H]3O)c(O)c12 class="bucket 3"
molecule="CC1(C)[C@H](C(=O)[O-])N2C(=O)C[C@H]2S1(=O)=O.[Na+] [Sulbactam (sodium)]" class="bucket 3"
molecule=O=Cc1cc(O)c(O)c(O)c1 class="bucket 2"
molecule=Oc1cc(O)c2c(c1)O[C@@]1(c3ccc(O)c(O)c3)Oc3cc(O)c4c(c3[C@@H]2[C@H]1O)O[C@H](c1ccc(O)c(O)c1)[C@H](O)[C@H]4c1c(O)cc(O)c2c1O[C@H](c1ccc(O)c(O)c1)[C@H](O)C2 class="bucket 3"
molecule=CC1=C(C=O)C(C)(C)C[C@H](O[C@@H]2O[C@H](CO)[C@@H](O)[C@H](O)[C@H]2O)C1 class="bucket 1"
molecule=C/C=C/c1cc(OC)c(OC)cc1OC class="bucket 2"

query: Record `O=C(O)[C@H]1O[C@H](O[C@@H]2[C@H](O)[C@@H](O)[C@@H](O)O[C@@H]2C(=O)O)[C@H](O)[C@@H](O)[C@H]1O` — which class?
result: bucket 1
